Molecular target: T1, human galectin-10-His (recombinant human galectin-10 with TEV-cleavable N-terminal His-tag) (human)
T1 construct: SEC-MALLS: dimer in solution; also called Gal10-His; humanGal10-His
T1 chain: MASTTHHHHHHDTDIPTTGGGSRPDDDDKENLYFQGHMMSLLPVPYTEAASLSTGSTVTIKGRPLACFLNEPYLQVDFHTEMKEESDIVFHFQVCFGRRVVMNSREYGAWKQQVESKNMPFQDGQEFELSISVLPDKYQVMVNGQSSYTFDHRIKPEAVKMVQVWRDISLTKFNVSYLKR
Assay: BLI tandem on galectin-10-His; competitor: saturating 2F09 mIgG1 (10 ug/mL)
endpoint.label: binding signal (nm)
Provide the reading as a plain figure in nm.

1. 6A08 mouse IgG1 (antibody, V domains shown, also called 6A08 mIgG1) VH: QVQLVESGGGLVQPGGSLRLSCAASGFTFSSYAMSWVRQAPGKGPEWVSAINRGGGSTYYADSVKGRFTISRDNAKNTLYLQMNSLKPEDAAVYYCATPGDRLWYYRYDYWGQGAQVTVSS VL: QTVVTQEPSLSVSPGGTVTLTCGLSSGSVTSSNYPGWYQQTPGQAPRLLIYNTNSRYSGVPNRFSGSISGNKAALIISGAQPEDEADYHCALNRVRGTYRVFGGGTHLTVL : 0
2. 1C09 mouse IgG1 (antibody, V domains shown, VH on mouse IgG1 heavy chain constant domains (CH1-CH2-CH3), VL on mouse lambda light chain constant domain; also called 1C09 mIgG1) VH: QVQLVESGPGLVKPSQTLSLTCTVSGGSITTNSYYWSWIRQPPGKGLEWMGAIAYSGSTYYSPSLKSRTSISRDTSKNQFTLHLSSVTPEDTAVYYCARRPNWYRALDAWGQGTLVTVSS VL: NFMLTQPSAVSVSLGQTARITCQGANLGRYYGIWYQQKPGQAPVQVIYGDSNRPSGIPERFSGSSSGGTATLTISGAQAEDEADYYCQSYESSTSPVFGGGTHLTVL : 0.02

Let's switch to this binder now.
For the binder shown here, 1D11 mouse IgG1 (antibody, V domains shown, VH on mouse IgG1 heavy chain constant domains (CH1-CH2-CH3), VL on mouse lambda light chain constant domain; also called 1D011; 1D11 mIgG1) VH: QVQLVESGGGLVQPGGSLRLSCAASGFTFDDYAMSWVRQAPGKGLEWVSGISWNGGSTYYAESMKGRFTISRDNAKNTLYLQMNSLKSEDTAVYYCAKDRNLGYRLGYPYDYWGQGTQVTVSS VL: QSVLTQPPSVSGSPGETVTISCAGTSSDVGYGNYVSWYQQLPGMAPRLLIYEVNKRASGITDRFSGSKSGNTASLTISGLQSEDEGDYYCASYRSSNNAVFGGGTHLTVL , give the reported binding signal (nm).
0.02
